# assayedSystem: Cholinesterase (Equus caballus) (UniProt P81908)
# Sequence (P81908 whole entry): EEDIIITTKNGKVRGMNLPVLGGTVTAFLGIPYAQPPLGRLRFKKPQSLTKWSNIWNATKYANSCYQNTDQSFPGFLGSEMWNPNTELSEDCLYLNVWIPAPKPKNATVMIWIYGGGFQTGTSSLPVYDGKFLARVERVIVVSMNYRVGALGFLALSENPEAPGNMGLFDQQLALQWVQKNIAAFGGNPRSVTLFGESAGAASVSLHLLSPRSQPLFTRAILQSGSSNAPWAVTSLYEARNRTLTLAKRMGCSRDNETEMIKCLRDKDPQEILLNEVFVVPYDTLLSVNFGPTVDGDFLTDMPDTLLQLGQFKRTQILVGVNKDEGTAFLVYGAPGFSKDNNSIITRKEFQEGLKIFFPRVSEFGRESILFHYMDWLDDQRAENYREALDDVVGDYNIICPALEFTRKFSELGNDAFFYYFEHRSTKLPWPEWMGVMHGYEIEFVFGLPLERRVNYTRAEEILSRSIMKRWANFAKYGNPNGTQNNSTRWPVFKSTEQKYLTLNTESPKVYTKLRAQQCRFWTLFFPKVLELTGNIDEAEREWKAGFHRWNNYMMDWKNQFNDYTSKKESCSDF
# assayProcedure: Inhibition of equine serum BChE using butyrylthiocholine iodide as substrate at 10 uM after 20 mins by Ellman's method
Please provide measured inhibition for the entries that follow.
Number only, in %; omit the unit.

Asked: Query inhibition on Cholinesterase (Equus caballus) (UniProt P81908) for "O=c1cc2n(-c3ccccc3)nc(-c3ccccc3)nc-2cc1N1CCc2ccccc2C1"
Given back: 14

Asked: Query inhibition on Cholinesterase (Equus caballus) (UniProt P81908) for "CC1CCN(c2cc3nc(-c4ccccc4)nn(-c4ccccc4)c-3cc2=O)CC1"
Given back: 11

Asked: Query inhibition on Cholinesterase (Equus caballus) (UniProt P81908) for "O=c1cc2n(-c3ccccc3)nc(-c3ccccc3)nc-2cc1N1CCN(c2ccccc2)CC1"
Given back: 15

Asked: Query inhibition on Cholinesterase (Equus caballus) (UniProt P81908) for "O=c1ccc2nc(-c3ccccc3)nn(-c3ccccc3)c-2c1"
Given back: 27

Asked: Query inhibition on Cholinesterase (Equus caballus) (UniProt P81908) for "O=c1cc2n(-c3ccccc3)nc(-c3ccccc3)nc-2cc1N1CCCCC1"
Given back: 7

Asked: Query inhibition on Cholinesterase (Equus caballus) (UniProt P81908) for "O=c1cc2n(-c3ccccc3)nc(-c3ccccc3)nc-2cc1Nc1ccccc1"
Given back: 9

Asked: Query inhibition on Cholinesterase (Equus caballus) (UniProt P81908) for "CN(C)CCCN(C)c1cc2nc(-c3ccccc3)nn(-c3ccccc3)c-2cc1=O"
Given back: 18

Asked: Query inhibition on Cholinesterase (Equus caballus) (UniProt P81908) for "O=c1c(N2CCC(c3ccccc3)CC2)cc2nc(-c3ccccc3)nn3c4ccccc4c1c23"
Given back: 11

Asked: Query inhibition on Cholinesterase (Equus caballus) (UniProt P81908) for "CCN(CC)c1cc2nc(-c3ccccc3)nn3c4ccccc4c(c1=O)c23"
Given back: 54

Asked: Query inhibition on Cholinesterase (Equus caballus) (UniProt P81908) for "COc1cc2nc(-c3ccccc3)nn(-c3ccccc3)c-2cc1=O"
Given back: 15

Asked: Query inhibition on Cholinesterase (Equus caballus) (UniProt P81908) for "O=c1cc2n(-c3ccccc3)nc(-c3ccccc3)nc-2cc1N1CCSCC1"
Given back: 0

Asked: Query inhibition on Cholinesterase (Equus caballus) (UniProt P81908) for "CN(c1cc2nc(-c3ccccc3)nn(-c3ccccc3)c-2cc1=O)C1CCCCC1"
Given back: 37

Asked: Query inhibition on Cholinesterase (Equus caballus) (UniProt P81908) for "O=c1cc2n(-c3ccccc3)nc(-c3ccccc3)nc-2cc1Sc1ccccc1"
Given back: 6

Asked: Query inhibition on Cholinesterase (Equus caballus) (UniProt P81908) for "O=c1cc2n(-c3ccccc3)nc(-c3ccccc3)nc-2cc1N1CCN(Cc2ccccc2)CC1"
Given back: 18

Asked: Query inhibition on Cholinesterase (Equus caballus) (UniProt P81908) for CC1CCCN(c2cc3nc(-c4ccccc4)nn(-c4ccccc4)c-3cc2=O)C1 (stereo not given)
Given back: 25

Asked: Query inhibition on Cholinesterase (Equus caballus) (UniProt P81908) for "O=c1cc2n(-c3ccccc3)nc(-c3ccccc3)nc-2cc1N1CCCc2ccccc21"
Given back: 10

Asked: Query inhibition on Cholinesterase (Equus caballus) (UniProt P81908) for "CN(Cc1ccccc1)c1cc2nc(-c3ccccc3)nn3c4ccccc4c(c1=O)c23"
Given back: 26

Asked: Query inhibition on Cholinesterase (Equus caballus) (UniProt P81908) for CC1CC(C)CN(c2cc3nc(-c4ccccc4)nn(-c4ccccc4)c-3cc2=O)C1 (stereo not given)
Given back: 18

Asked: Query inhibition on Cholinesterase (Equus caballus) (UniProt P81908) for "CN(CCCCCCCCNc1cc2nc(-c3ccccc3)nn3c4ccccc4c(c1=O)c23)Cc1ccccc1"
Given back: 25

Asked: Query inhibition on Cholinesterase (Equus caballus) (UniProt P81908) for CC1CCCN(c2cc3nc(-c4ccccc4)nn4c5ccccc5c(c2=O)c34)C1 (stereo not given)
Given back: 53

Sourced from ChEMBL document CHEMBL2150999
